Entry source: PubChem BioAssay (Tox21)

procedure.summary: A CellTox Green Cytotoxicity Assay to monitor cytotoxicity in HepG2 cells - 0 hour (AID 1224882); also: nearly all actives have a fitted effect of over 35% in size
condition.parameters: CellTox Green fluorescence; series mostly up to 76.8 µM
Calls of active or inactive are those of the source. Calls follow the shape of the dose curve; as a rule, active = well fitted activation curve with a large enough effect in the repeat runs; inconclusive = weak or mixed curves; inactive = flat fitted curve, though single readings scatter.
Classes used: 1 (yes) (active), 0 (no) (inactive)

1) C[C@@H](O[C@H]1OCCN(Cc2n[nH]c(=O)[nH]2)[C@H]1c1ccc(F)cc1)c1cc(C(F)(F)F)cc(C(F)(F)F)c1    0 (no)
2) CN(C(=O)CN(CCO)CC(=O)N(C)C(C)(C)Cc1ccccc1)C(C)(C)Cc1ccccc1    0 (no)
3) CCc1ccccc1    0 (no)
4) C[C@]12CC[C@@H]3c4ccc(O)cc4CC[C@H]3[C@@H]1CC[C@@H]2OC(=O)CCC1CCCC1    0 (no)
5) CC(CCC(=O)O)C(=O)O (stereo not given)    0 (no)
6) CCn1cc(C(=O)O)c(=O)c2cc(F)c(N3CCNCC3)cc21    0 (no)
7) CC(=O)OCCN(CCOC(C)=O)c1ccc(N=Nc2ccc([N+](=O)[O-])cc2C#N)cc1    0 (no)
8) C=CC(=O)[O-].C=CC(=O)[O-].[Zn+2]    0 (no)
9) COC(=O)[C@H]1[C@H]2C[C@@H]3c4[nH]c5cc(OC)ccc5c4CCN3C[C@H]2C[C@@H](OC(=O)/C=C/c2ccc(O)c(OC)c2)[C@@H]1OC    1 (yes)
10) CC1(C)S[C@@H]2[C@H](NC(=O)C(c3ccccc3)S(=O)(=O)O)C(=O)N2[C@H]1C(=O)O (stereo not given in full)    0 (no)

====

procedure.summary: A CellTox Green Cytotoxicity Assay to monitor cytotoxicity in HEK293 cells - 40 hour (AID 1224871); also: nearly all actives have a fitted effect of over 45% in size
condition.parameters: CellTox Green fluorescence; series mostly up to 76.8 µM
Excerpt: National Center for Advancing Translational Sciences [NCATS] NIH Chemical Genomics Center [NCGC] U.S. Environmental Protection Agency [EPA] National Institutes of Environmental Health Sciences [NIEHS] National Toxicology Program [NTP] Cell-based models are critical for drug discovery. […] Viable cells produce no appreciable increases in fluorescence. Therefore, the fluorescence signal produced by the binding interaction with dead cell DNA is proportional to cytotoxicity. […]
Inconclusive results are not listed. Activity calls are given as the source filed them. Calls come from the whole dose curve; as a rule, active = well fitted activation curve with a large enough effect in the repeat runs; inconclusive = weak or mixed curves; inactive = flat fitted curve, though single readings scatter.
Classes used: Yes for active, No for inactive

1. CC(=O)[C@H]1[C@H](C#N)C[C@H]2[C@@H]3CC=C4C[C@@H](O)CC[C@]4(C)[C@H]3CC[C@@]21C    No
2. FC(F)(F)c1ccccc1Cl    No
3. CC(CCC(=O)O)C(=O)O (configuration not stated)    No
4. Cc1ccco1    No
5. C=CCc1ccccc1OCC(O)CNC(C)C (configuration not stated)    No
6. CC(=O)Oc1ccc([N+](=O)[O-])cc1CCl    No
7. COc1ccccc1N1CCN(CC(O)COc2cccc3ccccc23)CC1 (configuration not stated)    No
8. O=C1NC(=O)c2cc([N+](=O)[O-])ccc21    No
9. Nc1cccc2c1CN(C1CCC(=O)NC1=O)C2=O (configuration not stated)    No
10. CS(=O)(=O)c1ccc(-c2cn3ccccc3n2)cc1    No
11. C[C@]12CC[C@@H]3c4ccc(O)cc4CC[C@H]3[C@@H]1CC[C@@H]2OC(=O)CCC1CCCC1    Yes
12. CCCCCCCCOc1ccc(C(=O)O)cc1    No

====

study.target: Nuclear receptor subfamily 1 group I member 2 (Homo sapiens)
procedure.summary: CYP3A4 induction through human pregnane X receptor (PXR) by small molecules, qHTS assay (AID 1346984); also: nearly all actives have a fitted effect of over 40% in size
condition.parameters: DPX-2 HepG2 PXR, CYP3A4-luciferin luminescence, 24 h; series mostly up to 46.1 µM
Records with an inconclusive call do not appear. The source made the active and inactive calls. Calls come from the whole dose curve; as a rule, active = well fitted activation curve with a large enough effect in the repeat runs; inconclusive = weak or mixed curves; inactive = no such curve, though single readings can be large or run the other way.
Classes used: label 1 (active), label 0 (inactive)

1. CN1C(C(=O)Nc2ccccn2)=C(O)c2sccc2S1(=O)=O    label 0
2. CCCC(C(=O)OCCN(CC)CC)(c1ccccc1)c1ccccc1    label 1
3. COc1ccccc1N1CCN(CCCCNC(=O)c2ccc(-c3ccc(C(C)=O)cc3)cc2)CC1    label 0
4. C[C@H]1c2cccc(O)c2C(O)=C2C(=O)[C@]3(O)C(O)=C(C(N)=O)C(=O)[C@@H](N(C)C)[C@@H]3[C@@H](O)[C@@H]21    label 0
5. CCn1cc(C(=O)O)c(=O)c2cc(F)c(N3CCNCC3)cc21    label 0

====

procedure.summary: qHTS assay to identify small molecule antagonists of the sonic hedgehog signaling (Shh) pathway - cell viability counter screen (AID 1259367); also: nearly all actives have a fitted effect of over 55% in size
condition.parameters: NIH/3T3 Gli1-Luc viability, CellTiter-Fluor, 24 h; series mostly up to 92.4 µM
Inconclusive results are not listed. Active and inactive are the calls of the source. Calls follow the shape of the dose curve; as a rule, active = well fitted cell-killing curve with a large enough effect in the repeat runs; inconclusive = weak or mixed curves, or effect the other way; inactive = no such curve, though single readings can be large or run the other way.
Classes used: active, inactive

1. CCOc1ccc(Cc2nccc3cc(OCC)c(OCC)cc23)cc1OCC    inactive
2. OC1(c2ccccc2)CCNCC1    inactive
3. O=C(/C=C/c1ccc(O)c(O)c1)O[C@@H]1C[C@@](OC(=O)/C=C/c2ccc(O)c(O)c2)(C(=O)O)C[C@@H](O)[C@@H]1O    inactive
4. Cc1ccccc1S    inactive
5. Cc1[nH]cnc1CN1CCc2c(c3ccccc3n2C)C1=O    inactive
6. C=C(C)CCCC(C)CCO (stereo not given)    inactive
7. CCC(C)(C)OC    inactive
8. CO/N=C(/C(=O)N[C@@H]1C(=O)N2C(C(=O)O)=C(COC(N)=O)CS[C@H]12)c1ccco1    inactive
9. CC(=O)Nc1cc(S(=O)(=O)O)cc2cc(S(=O)(=O)O)c(N=Nc3ccccc3)c(O)c12    active
10. O=C1c2ccccc2C(=O)N1CCc1noc(-c2ccc(CN3CCCCCC3)s2)n1    inactive
11. Clc1cc(Cl)nc(Cl)n1    inactive
12. CC(=O)Nc1ccc(C)cc1C    inactive
13. Brc1cc(Br)c(Oc2cc(Br)c(Br)cc2Br)cc1Br    inactive
14. Cc1cccc(O)c1N    active
15. CC1=C(Br)C(=O)C(Br)=C/C1=C(/c1ccccc1S(=O)(=O)O)c1cc(Br)c(O)c(Br)c1C    active
16. Nc1cccc2c1CN(C1CCC(=O)NC1=O)C2=O (stereo not given)    inactive
17. C=CCc1ccccc1OCC(O)CNC(C)C (stereo not given)    inactive
18. CC(C)=CCC/C(C)=C/CC/C(C)=C/C(=O)OCC(=O)[C@@]1(O)CC[C@H]2[C@@H]3CCC4=CC(=O)C=C[C@]4(C)[C@H]3[C@@H](O)C[C@@]21C    inactive
19. CC(C)C=O    inactive
20. COc1cc(C(=O)NC2CCN(C)CC2)ccc1Nc1ncc2c(n1)N(C1CCCC1)CC(F)(F)C(=O)N2C    active
21. CC1(C)S[C@@H]2[C@H](NC(=O)C(c3ccccc3)S(=O)(=O)O)C(=O)N2[C@H]1C(=O)O (stereo not given in full)    inactive
22. O=C1NC(=O)c2cc([N+](=O)[O-])ccc21    inactive
23. COC(=O)CCS    inactive
24. CC(=O)c1cc2ccccc2s1    inactive
25. CN1CCCC(n2nc(Cc3ccc(Cl)cc3)c3ccccc3c2=O)CC1 (stereo not given)    active
26. C[C@H]1C[C@H](O)c2ccsc2S1(=O)=O    inactive
27. C[C@]1(Cn2ccnn2)[C@H](C(=O)O)N2C(=O)C[C@H]2S1(=O)=O    inactive
28. CC1CC(OC(=O)C(O)c2ccccc2)CC(C)(C)N1C (stereo not given)    inactive
29. O=C1NCCN1CCO    inactive
30. CC1(C)O[C@@H]2C[C@H]3[C@@H]4C[C@H](F)C5=CC(=O)C=C[C@]5(C)[C@H]4[C@@H](O)C[C@]3(C)[C@]2(C(=O)CO)O1    inactive
31. CCOC(=O)c1ccc(O)c(O)c1    inactive
32. O=C1CCCCCCCCCCOCCCCO1    inactive
33. O=C(O)c1ccc(OCCCOc2ccc(C(=O)O)cc2)cc1    inactive
34. Oc1cc2c(cc1O)[C@H]1c3ccc(O)c(O)c3OC[C@@]1(O)C2    active
35. CCOC(=O)OC(C)OC(=O)[C@@H]1N2C(=O)[C@@H](NC(=O)[C@H](N)c3ccccc3)[C@H]2SC1(C)C (stereo not given in full)    inactive
36. O=c1c(O)c(-c2ccc(O)cc2)oc2cc(O)cc(O)c12    active
37. C=C1c2cccc(O)c2C(O)=C2C(=O)[C@]3(O)C(O)=C(C(N)=O)C(=O)[C@@H](N(C)C)[C@@H]3[C@@H](O)[C@H]12    inactive
38. CC1(CN2CCC(n3c(=O)[nH]c4ccccc43)CC2)OCc2ccccc2-n2cccc21 (stereo not given)    inactive
39. c1ccc2c(c1)CCc1ccccc1N2    inactive
40. NNC(=O)CP(=O)(c1ccccc1)c1ccccc1    inactive
41. CC(O)c1ccccc1 (stereo not given)    inactive
42. Cc1cscn1    inactive
43. COc1ccccc1NC(=O)c1cc2ccccc2cc1O    inactive
44. CC(=O)OCC[N+](C)(C)C    inactive
45. C[C@@H]1CN(CCCn2c3ccccc3c3ccccc32)C[C@H](C)N1    active
46. CC(=O)OCC(=O)NCCCOc1cccc(CN2CCCCC2)c1    inactive
47. CCC(=O)C1CC(C(C)C)CC=C1C (stereo not given)    inactive
48. FC(F)(F)c1ccccc1Cl    inactive
49. Brc1cc2ccccc2c2ccccc12    inactive
50. O=C1c2ccccc2C(=O)C1(O)O    active
